meta.source: patent US20120015399A1

assay.overview: Absorption spectra of thiophene derivatives in solvents of different polarity
Format: physicochemical
condition.summary: at maximum absorption wavelength; 1,4-Dioxane, ET(30) 36.0
# maps each entry to its Molar absorption coefficient

A selection of reference data follows.
Looking up `CCCCCCN(CCCCCC)c1ccc(-c2ccc(-c3ncccn3)s2)cc1` , I found its Molar absorption coefficient recorded as 33,000 mol^−1cm^−1

Looking up `CCCCCCN(CCCCCC)c1ccc(-c2ccc(-c3ccncc3)s2)cc1` , I found its Molar absorption coefficient recorded as 31,000 mol^−1cm^−1

Looking up `CCCCCCN(CCCCCC)c1ccc(-c2ccc(-c3cc[n+](C)cc3)s2)cc1.[I-]` , I found its Molar absorption coefficient recorded as 26,000 mol^−1cm^−1

---
Looking up `CCCCCCN(CCCCCC)c1ccc(-c2ccc(-c3ccccn3)s2)cc1` , I found its Molar absorption coefficient recorded as 33,000 mol^−1cm^−1
